Listed here are molecules together with their documented inhibition at 0.1 µM.
study_system: NOX4 (Homo sapiens, UniProt Q9NPH5)
Construct: expressed in transfected cells
Sequence (Q9NPH5 1-578): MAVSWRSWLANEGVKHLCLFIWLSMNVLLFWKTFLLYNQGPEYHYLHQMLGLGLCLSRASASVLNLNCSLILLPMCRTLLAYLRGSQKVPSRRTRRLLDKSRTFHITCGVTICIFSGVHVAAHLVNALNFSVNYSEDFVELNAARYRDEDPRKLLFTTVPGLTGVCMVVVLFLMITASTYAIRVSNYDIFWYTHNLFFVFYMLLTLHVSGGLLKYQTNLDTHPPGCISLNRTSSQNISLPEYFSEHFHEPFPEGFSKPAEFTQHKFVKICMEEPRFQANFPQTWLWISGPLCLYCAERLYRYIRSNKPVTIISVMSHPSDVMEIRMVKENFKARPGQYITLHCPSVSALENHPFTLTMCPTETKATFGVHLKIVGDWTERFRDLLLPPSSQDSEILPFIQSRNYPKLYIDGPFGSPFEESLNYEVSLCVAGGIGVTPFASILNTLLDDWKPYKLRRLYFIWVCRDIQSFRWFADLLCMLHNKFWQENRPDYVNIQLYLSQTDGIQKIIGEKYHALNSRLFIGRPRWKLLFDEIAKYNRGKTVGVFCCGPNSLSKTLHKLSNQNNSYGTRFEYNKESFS
Sequence (P13498 2-195 partner limits assumed): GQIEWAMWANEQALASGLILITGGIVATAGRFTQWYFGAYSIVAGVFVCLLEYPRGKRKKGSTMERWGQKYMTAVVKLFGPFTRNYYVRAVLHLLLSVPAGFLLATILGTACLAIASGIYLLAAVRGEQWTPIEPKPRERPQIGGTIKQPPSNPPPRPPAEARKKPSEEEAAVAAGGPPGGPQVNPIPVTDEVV
method: NOX4 HEK293 overexpression cell-based assay (Amplex Red H2O2)
test_settings: HEK293, 100 nM; HEK293 cells stably overexpressing NOX4; DMSO = 0, GKT137831 = 100

INSERT INTO measurements (molecule, study_system, data_value) VALUES
  ('COc1ccc(-c2[nH]c3cc(C(=O)O)ccc3c(=O)c2O)cc1 [Compound 33]', 'NOX4 (Homo sapiens, UniProt Q9NPH5)', '≤ 19%'),
  ('COc1cc2[nH]c(-c3ccccc3[N+](=O)[O-])c(O)c(=O)c2cc1OC [Compound 29, 2,2,2-trifluoroacetate]', 'NOX4 (Homo sapiens, UniProt Q9NPH5)', '50 to 79%'),
  ('COc1cc2[nH]c(-c3ccccc3S(C)(=O)=O)c(O)c(=O)c2cc1OC [Compound 23]', 'NOX4 (Homo sapiens, UniProt Q9NPH5)', '50 to 79%'),
  ('COc1cc2[nH]c(-c3cccs3)c(O)c(=O)c2cc1OC [Compound 7]', 'NOX4 (Homo sapiens, UniProt Q9NPH5)', '50 to 79%'),
  ('COc1cc2[nH]c(-c3ccc(Cl)cc3)c(O)c(=O)c2cc1OC [Compound 8]', 'NOX4 (Homo sapiens, UniProt Q9NPH5)', '≤ 19%'),
  ('COc1ccc(C(=O)COC(=O)c2ccc3c(=O)c(O)c(-c4ccc(OC)cc4)[nH]c3c2)cc1 [Compound 32, 2,2,2-trifluoroacetate]', 'NOX4 (Homo sapiens, UniProt Q9NPH5)', '≤ 19%'),
  ('COc1cc2[nH]c(-c3ccccc3OC)c(O)c(=O)c2cc1OC.Cl [Compound 51]', 'NOX4 (Homo sapiens, UniProt Q9NPH5)', '≤ 19%');

# ---- query molecule ----
The molecule listed as COc1ccccc1-c1[nH]c2cccc(Br)c2c(=O)c1O [Compound 25] has a reported inhibition at 0.1 µM of ≤ 19%

###

study_system: NOX2 (Homo sapiens)
Construct: HL-60 cells, rich in NOX2 expression; endogenous in cells; host or cells: DMSO-differentiated HL-60
Sequence (P04839 2-570 limits assumed, one chain of several): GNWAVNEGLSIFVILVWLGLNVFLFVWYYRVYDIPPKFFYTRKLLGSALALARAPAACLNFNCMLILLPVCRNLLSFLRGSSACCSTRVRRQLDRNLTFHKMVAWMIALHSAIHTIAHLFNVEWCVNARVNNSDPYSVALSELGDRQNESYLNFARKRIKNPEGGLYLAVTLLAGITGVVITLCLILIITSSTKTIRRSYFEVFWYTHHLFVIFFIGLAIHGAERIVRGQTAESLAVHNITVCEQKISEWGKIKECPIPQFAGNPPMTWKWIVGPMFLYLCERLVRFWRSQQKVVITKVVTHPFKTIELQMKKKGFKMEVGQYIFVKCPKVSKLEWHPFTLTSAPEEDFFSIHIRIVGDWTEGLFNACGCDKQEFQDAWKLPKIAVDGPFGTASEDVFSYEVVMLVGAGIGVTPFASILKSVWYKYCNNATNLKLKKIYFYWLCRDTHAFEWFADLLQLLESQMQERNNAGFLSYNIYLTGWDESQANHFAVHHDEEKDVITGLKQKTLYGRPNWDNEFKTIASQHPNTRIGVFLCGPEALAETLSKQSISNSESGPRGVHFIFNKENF
method: NOX2 HL60 cell-based assay (PMA oxidative burst, L012 chemiluminescence)
test_settings: HL-60, 100 nM; DMSO-differentiated HL-60 cells, PMA-stimulated
Protocol: NOX2 HL60 Cell-Based Assay: HL-60 cells, rich in NOX2 expression, was stimulated to undergo oxidative burst by phorbol myristate acetate (PMA). The ROS produced during this process was measured using the O2^−-specific chemiluminescent probe L012. L012 was added to DMSO-differentiated HL-60 cell suspensions to a final concentration of 100 μM. Then, 80 μL aliquots of cell suspension (2.5×10^5 cells) were transferred to individual wells of a 96-well plate. […]
# inhibition at 0.1 µM per entry

Example entries and their recorded answers appear below.
INSERT INTO measurements (compound, study_system, measurement_label, data_value) VALUES
  ('COc1cc2[nH]c(C(C)(C)C)c(O)c(=O)c2cc1OC', 'NOX2 (Homo sapiens)', 'inhibition at 0.1 µM', '≤ 19%'),
  ('COc1ccc(-c2[nH]c3cc(OC)c(OC)cc3c(=O)c2O)cc1 [Compound 2, 2,2,2-trifluoroacetate]', 'NOX2 (Homo sapiens)', 'inhibition at 0.1 µM', '≤ 19%'),
  ('COc1cc2[nH]c(-c3ccc(F)cc3)c(O)c(=O)c2cc1OC', 'NOX2 (Homo sapiens)', 'inhibition at 0.1 µM', '≤ 19%');

Now for the compound whose inhibition at 0.1 µM we want.
Notebook: COc1cc2[nH]c(-c3ccccc3OC(F)(F)F)c(O)c(=O)c2cc1OC , inhibition at 0.1 µM read as 50 to 79%

###

study_system: NOX4 (Homo sapiens)
Construct: expressed in transfected cells
method: NOX4 HEK293 overexpression cell-based assay (Amplex Red H2O2)
test_settings: HEK293, 100 nM; HEK293 cells stably overexpressing NOX4; DMSO = 0, GKT137831 = 100
Measured inhibition at 0.1 µM, listed per entry for reference.

INSERT INTO measurements (test_smiles, study_system, data_value) VALUES
  ('COc1ccccc1-c1[nH]c2c(OC)c(OC)c(OC)cc2c(=O)c1O', 'NOX4 (Homo sapiens)', '≤ 19%'),
  ('COc1cccc(-c2[nH]c3cc(OC)c(OC)cc3c(=O)c2O)c1', 'NOX4 (Homo sapiens)', '≤ 19%'),
  ('COc1cc2[nH]c(-c3ccccc3Cl)c(N)c(=O)c2cc1OC', 'NOX4 (Homo sapiens)', '≤ 19%'),
  ('COc1ccc2[nH]c(C(=O)c3ccccc3OC)c(O)c(=O)c2c1', 'NOX4 (Homo sapiens)', '≤ 19%'),
  ('COc1cc2[nH]c(-c3ccccc3C)c(O)c(=O)c2cc1OC', 'NOX4 (Homo sapiens)', '50 to 79%'),
  ('COc1cc2[nH]c(-c3ccc(C(F)(F)F)cc3)c(O)c(=O)c2cc1OC', 'NOX4 (Homo sapiens)', '≤ 19%'),
  ('COc1cc2[nH]c(-c3ccccc3)c(N)c(=O)c2cc1OC', 'NOX4 (Homo sapiens)', '≤ 19%'),
  ('COc1cc2[nH]c(C(C)(C)C)c(O)c(=O)c2cc1OC', 'NOX4 (Homo sapiens)', '≤ 19%');

Consider now this further compound.
Summary for this compound, COc1cc2[nH]c(-c3ccccc3C(F)(F)F)c(O)c(=O)c2cc1OC : inhibition at 0.1 µM is 50 to 79%

###

study_system: NOX4 (Homo sapiens)
Construct: expressed in transfected cells
method: NOX4 HEK293 overexpression cell-based assay (Amplex Red H2O2)
test_settings: HEK293, 1000 nM; HEK293 cells stably overexpressing NOX4; DMSO = 0, GKT137831 = 100
measurement_label: inhibition at 1 µM

INSERT INTO assay_data (test_smiles, study_system, measurement_label, data_value) VALUES
  ('COc1cc2[nH]c(-c3ccc(Cl)cc3)c(O)c(=O)c2cc1OC', 'NOX4 (Homo sapiens)', 'inhibition at 1 µM', '50 to 79%'),
  ('COc1cc2[nH]c(-c3ccc(C)cc3)c(O)c(=O)c2cc1OC', 'NOX4 (Homo sapiens)', 'inhibition at 1 µM', '50 to 79%'),
  ('COc1cc2[nH]c(-c3cccs3)c(O)c(=O)c2cc1OC', 'NOX4 (Homo sapiens)', 'inhibition at 1 µM', '≥ 80%'),
  ('COc1ccc(-c2[nH]c3ccsc3c(=O)c2O)cc1', 'NOX4 (Homo sapiens)', 'inhibition at 1 µM', '≥ 80%'),
  ('COc1cc2[nH]c(-c3ccccc3F)c(O)c(=O)c2cc1OC', 'NOX4 (Homo sapiens)', 'inhibition at 1 µM', '50 to 79%');

COc1cc2[nH]c(-c3ccccc3C(F)(F)F)c(O)c(=O)c2cc1OC on NOX4 (Homo sapiens) gives inhibition at 1 µM = 50 to 79%

Result for CCOc1ccccc1-c1[nH]c2cc(OC)c(OC)cc2c(=O)c1O , tested on NOX4 (Homo sapiens), inhibition at 1 µM: ≥ 80%

NOX4 (Homo sapiens) data for COc1cc(Br)c(-c2[nH]c3cc(OC)c(OC)cc3c(=O)c2O)c(OC)c1 ; its inhibition at 1 µM: ≥ 80%

Form field inhibition at 1 µM for item COc1ccccc1-c1[nH]c2c(OC)c(OC)c(OC)cc2c(=O)c1O on NOX4 (Homo sapiens): 50 to 79%
